Some compounds, each annotated with its measured GFP response vs DMSO.
- Procedure Summary: modulators of MEP2-GFP levels in yeast, confirmation, S. cerevisiae, flow cytometry GFP, cherry picks (AID 2272);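 note: ratio of well signal to plate DMSO mean so 100% equals DMSO level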
- Experimental Setup: S. cerevisiae MEP2-GFP strain, 3 h, at 10 µM, stronger effect = higher value
# number only, unit % dropped from output

Form field: reported GFP response vs DMSO of `COc1cc(NC(=O)c2cccc(F)c2)ccc1NC(=O)c1cc2ccccc2o1`
102

====

- Procedure Summary: modulators of MEP2-GFP levels in yeast, confirmation, S. cerevisiae, flow cytometry GFP, cherry picks (AID 2272);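 note: ratio of well signal to plate DMSO mean so 100% equals DMSO level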
- Experimental Setup: S. cerevisiae MEP2-GFP strain, 3 h, at 10 µM, stronger effect = higher value
Measurement Type: GFP response vs DMSO (%)
Form entry: value (%) — number only.

Use these answered entries as a reference point.
Cc1ccc(-n2ncc(C#N)c2/N=C/N(C)C)cc1 : 107
CCOc1ccccc1NC1=C(Cl)C(=O)N(Cc2ccccc2)C1=O : 104
CC(C)C(=O)NC(c1cccs1)c1cc([N+](=O)[O-])c2cccnc2c1O (stereo not given) : 94.7
CSC1=NS(=O)(=O)c2c(C)nn(C)c2S1 : 110

Now consider a different molecule.
Reported GFP response vs DMSO for `COc1cccc2c1Oc1ncccc1N(C(=O)CCC(=O)NCc1ccccc1F)C2` : what is it?
135
